Where do these numbers come from? They come from paper PMC11564280.

# Assay type: in vivo, human
# experimental setup: human, plasma, po, 2.5 mg
measured metric: half-life

C[C@@H](N)c1cc(Cl)ccc1Cn1c(=S)[nH]c(=O)c2[nH]ccc21 [Mitiperstat] | 50.2 h

====

# Assay type: in vivo, human
# experimental setup: human, plasma, po, 5 mg
measured metric: half-life (h)

C[C@@H](N)c1cc(Cl)ccc1Cn1c(=S)[nH]c(=O)c2[nH]ccc21 | 55.4

====

# Format: in vivo, human
# experimental setup: human, plasma, po, 10 mg
measured metric: Vd/F (L)

C[C@@H](N)c1cc(Cl)ccc1Cn1c(=S)[nH]c(=O)c2[nH]ccc21 [Mitiperstat] | 2250
